- Test system: UO-31 renal
- assay-overview: NCI-60 one-dose screen, 48 h (100 = growth as untreated, 0 = no growth, -100 = all killed)
- stated-conditions: 10 µM unless noted
About 83,000 compounds went through this panel and 20% of them were active in at least one assay; those are over-represented in the sample as a whole.
The threshold is 80%. Values of growth beneath it are tagged Yes; values meeting or exceeding it are tagged No.

Here are 2 compounds together with their reported answers.
1) CC/C(=N/NC(N)=O)c1ccccc1 : No
2) COCCNC1=C(Cl)C(=O)c2ccccc2C1=O : No

growth under 80%? Item: "COC(=O)CCCCCn1c2ccccc2c2c3c(c4c5ccccc5[nH]c4c21)C(=O)N(O)C3=O"
Yes

In plain terms, does "O=C1c2ccccc2C(=Cc2ccccc2)c2ccccc21" come in under 80% for growth?
Yes

Please state whether growth is below 80% for "COc1ccc2c(c1)C/C(=C\c1cc(-c3cc(OC)c(OC)c(OC)c3)n[nH]1)C2=O"
Yes

====

Give measured growth for each item. Keep answers brief.
- Test system: HT29 colon
- assay-overview: NCI-60 one-dose screen, 48 h (100 = growth as untreated, 0 = no growth, -100 = all killed)
- stated-conditions: 10 µM unless noted
About 83,000 compounds went through this panel and 20% of them were active in at least one assay; those are over-represented in the sample as a whole.
Give bare numbers, in %.

// below: answered compounds
1) Oc1cccc2ccc(N/N=C/c3cc(CN4CCCCC4)c(O)c4ncccc34)nc12 : 14.7
2) Cc1cccc(C)c1NC(=O)CSC(=S)N1CCN(CCOCCO)CC1 : 93.6

Could you tell me growth for each of these compounds? They are listed below.
1. CC(C)=CCC[C@](C)(O)[C@H]1CC[C@]2(C)[C@@H]1CC[C@@H]1[C@@]3(C)C/C(=C/c4ccc(Br)cc4)C(=O)C(C)(C)[C@@H]3CC[C@]12C
2. CCN1CCN(C(=O)[C@@]2(C)CC[C@]3(C)CC[C@]4(C)C(=CC(=O)[C@@H]5[C@@]6(C)CC[C@H](OCCC#N)C(C)(C)[C@@H]6CC[C@]54C)[C@@H]3C2)CC1

[77, 42.6]

====

- Tested on: A498 renal
- assay-overview: NCI-60 one-dose screen, 48 h (100 = growth as untreated, 0 = no growth, -100 = all killed)
- stated-conditions: 10 µM unless noted
Compounds without any hit were thinned out: in the full panel of roughly 83,000, 20% have a hit.
Task for the reader: assign each of the following compounds its reported growth.
Numbers only, in %.

The examples below pair each entry with its known result.
1) C#Cc1cc2c(N)c(C(=O)c3cc(OC)c(OC)c(OC)c3)[nH]c2cc1OC : -19.1
2) CC1(C)C(=O)/C(=C\c2cccnc2)C[C@]2(C)[C@H]3CC[C@@H]4[C@@H](C(=O)/C=C/c5ccncc5)CC[C@@]4(C)[C@]3(C)CC[C@@H]12 : 47.3

Report growth for every entry below.
1. NNC(=O)c1nc2ccccc2[nH]1
2. C[C@@H]1CCCCCCCCC[C@H](O)C(=O)C[C@@H](SC[C@@H](O)C(=O)O)C(=O)O1
3. CC1(C)CC[C@]2(CO)CC[C@]3(C)C(=CC[C@@H]4[C@@]5(C)CC[C@H](NCO)C(C)(C)[C@@H]5CC[C@]43C)[C@@H]2C1
4. Cc1ccc(Sc2sc(-c3ccccc3)nc2[P+](c2ccccc2)(c2ccccc2)c2ccccc2)cc1
5. CC(=O)Cc1nsc(NC(=O)c2ccoc2COc2ccccc2)n1
6. c1ccc(-c2nc(Nc3ccc(-c4nc5ccccc5[nH]4)cc3)nc(N3CCOCC3)n2)cc1
7. CC1c2ccccc2N(S(=O)(=O)c2ccccc2)C1C (centres undefined)

96.2
167
84.2
-43.5
97.4
-83.4
104
